As an illustration, consider measured IC50 for compounds on Human MTHFD2 (Homo sapiens, UniProt P13995).

// worked examples, IC50 included
COC(=O)c1nc2c(c(=O)n(Cc3ccc(Cl)c(Cl)c3)c(=O)n2C)n1C	1000 to 5000 nM
Cn1c(N[C@H]2CC[C@H](CO)C2)nc2c1c(=O)n(Cc1ccc(Cl)c(Cl)c1)c(=O)n2C (racemic)	10 to 1000 nM

Could you report IC50 for every entry in the following list?
1. Cn1c(NCCC#N)nc2c1c(=O)n(Cc1ccc(Cl)c(Cl)c1)c(=O)n2C
2. Cn1c(=O)n(Cc2ccc(Cl)c(Cl)c2)c(=O)c2[nH]c(NCCCO)nc21

**Result**
1000 to 5000 nM
1000 to 5000 nM

====

- assay-system: Human MTHFD2 (Homo sapiens, UniProt P13995)
- Sequence (P13995 36-350): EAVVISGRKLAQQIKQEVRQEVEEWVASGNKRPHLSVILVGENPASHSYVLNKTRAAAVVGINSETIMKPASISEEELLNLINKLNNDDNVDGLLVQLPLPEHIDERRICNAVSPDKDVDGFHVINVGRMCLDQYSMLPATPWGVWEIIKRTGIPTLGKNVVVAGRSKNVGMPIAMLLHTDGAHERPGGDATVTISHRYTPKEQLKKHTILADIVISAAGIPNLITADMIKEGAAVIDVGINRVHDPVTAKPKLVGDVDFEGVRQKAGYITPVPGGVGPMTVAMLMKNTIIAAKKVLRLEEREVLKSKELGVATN
Kindly state IC50 for each of the entries shown.

Cn1c(CCO)nc2c1c(=O)n(Cc1cc3ccccc3[nH]1)c(=O)n2C	1000 to 5000 nM
Cn1c([C@H](N)Cc2cccnc2)nc2c1c(=O)n(Cc1cc3c(Cl)cccc3[nH]1)c(=O)n2C	10 to 1000 nM
Cn1c(Nc2ccncc2)nc2c1c(=O)n(Cc1ccc3ccccc3c1Cl)c(=O)n2C	10 to 1000 nM
Cn1c(Nc2ccc(-c3nnn[nH]3)cc2)nc2c1c(=O)n(Cc1cc3c(Cl)cccc3[nH]1)c(=O)n2C	10 to 1000 nM
Cn1c(NC[C@@H]2CCCO2)nc2c1c(=O)n(Cc1ccc(C(F)(F)F)cc1)c(=O)n2C	> 10000 nM

Could you report IC50 for every entry in the following list?
1. Cn1c(NC[C@@H](O)CO)nc2c1c(=O)n(Cc1ccc(Cl)c(Cl)c1)c(=O)n2C
2. Cn1c(Nc2ccncc2)nc2c1c(=O)n(Cc1cc3ccccc3[nH]1)c(=O)n2C
3. Cn1c(N[C@@H]2CCNC2)nc2c1c(=O)n(Cc1ccc(Cl)c(Cl)c1)c(=O)n2C
4. Cn1c(Nc2ccc(CO)cc2)nc2c1c(=O)n(Cc1cc3c(Cl)cccc3[nH]1)c(=O)n2C
5. COc1ccc2c(c1)cc(Cn1c(=O)c3c(ncn3C)n(C)c1=O)n2C

**Result**
["10 to 1000 nM", "10 to 1000 nM", "1000 to 5000 nM", "10 to 1000 nM", "> 10000 nM"]

Could you report IC50 for every entry in the following list?
1. Cn1c(N[C@H]2CC[C@@H](O)C2)nc2c1c(=O)n(Cc1nc3ccccc3[nH]1)c(=O)n2C
2. Cn1c(NCCC(=O)O)nc2c1c(=O)n(Cc1ccc(Cl)c(Cl)c1)c(=O)n2C
3. Cn1c(N[C@H]2C[C@H](C(=O)O)C2)nc2c1c(=O)n(Cc1cc3ccccc3[nH]1)c(=O)n2C
4. Cn1c(Nc2cccc([C@@H]3C[C@H]3C(N)=O)n2)nc2c1c(=O)n(Cc1cc3c(Cl)cccc3[nH]1)c(=O)n2C (racemic)
5. Cn1c(Nc2ccc(Cl)c(CCC(=O)O)n2)nc2c1c(=O)n(Cc1cc3c(Cl)cccc3[nH]1)c(=O)n2C
6. Cn1c(Nc2ccccn2)nc2c1c(=O)n(Cc1ccc(Cl)c(Cl)c1)c(=O)n2C

**Result**
1000 to 5000 nM
10 to 1000 nM
10 to 1000 nM
10 to 1000 nM
10 to 1000 nM
10 to 1000 nM

Could you report IC50 for every entry in the following list?
1. Cn1c(CCN2CCOCC2)nc2c1c(=O)n(Cc1ccc(Cl)c(Cl)c1)c(=O)n2C
2. Cn1c(N[C@H]2CC[C@@H](CO)C2)nc2c1c(=O)n(Cc1cc3ccccc3[nH]1)c(=O)n2C (stereo in doubt)
3. Cn1c(NCc2cccnc2)nc2c1c(=O)n(Cc1ccc(Cl)c(Cl)c1)c(=O)n2C

**Result**
10 to 1000 nM
10 to 1000 nM
1000 to 5000 nM
